System: CP256
Assay: qHTS profiling for inhibitors of Plasmodium falciparum proliferation (AID 504749); also: nearly all actives have a fitted effect of over 60% in size
Conditions: P. falciparum in erythrocytes, SYBR Green DNA, 72 h; series mostly up to 28.7 µM
Inconclusive results are not listed. Activity calls are given as the source filed them. Calls follow the shape of the dose curve; as a rule, active = well fitted inhibition curve with a large enough effect; inconclusive = small, poorly fitted or top-dose-only effect; inactive = flat fitted curve, though single readings scatter.
The reply should be one of these categories: active, inactive

Below, 5 molecules whose answers are already recorded.
• CCN(CC)CCNC(=O)c1ccc(NC(C)=O)cc1 = inactive
• COc1ccc([C@@H]2Sc3ccccc3N(CCN(C)C)C(=O)[C@@H]2OC(C)=O)cc1 = inactive
• O=c1[nH]c(=O)n([C@H]2C[C@H](O)[C@@H](CO)O2)cc1Br = inactive
• C[N+](C)(C)CCOC(=O)CCC(=O)OCC[N+](C)(C)C = inactive
• CN(C(=O)CCCOc1ccc2[nH]c(=O)ccc2c1)C1CCCCC1 = inactive

Q: Dear colleague, could you share the recorded outcome for COc1ccc(CN(CCN(C)C)c2ccccn2)cc1 when you have a moment?
A: inactive

Q: State the result this test recorded for OCCN1CCN(CCCN2c3ccccc3C=Cc3ccccc32)CC1 .
A: active

Q: For this molecule, state the assay outcome: O=C(CCNNC(=O)c1ccncc1)NCc1ccccc1
A: inactive

Q: # lookup: test call for Cc1cc(C)c(/C=C2\C(=O)Nc3ccccc32)[nH]1
A: inactive

Q: What did the test return for CCNC(=O)N1CCN(CCCC(c2ccc(F)cc2)c2ccc(F)cc2)CC1 ?
A: active

Q: Lab log entry: CN=C(NC#N)NCCSCc1nc[nH]c1C — outcome as called in the assay?
A: inactive

Q: Hi, sorry to bother you, what did the test record for CCN(CC)CCCN(c1ccccc1)C1Cc2ccccc2C1 ?
A: active

---

System: HEK293
Assay: Cytotoxic Profiling of Annotated Libraries Using Quantitative High-Throughput Screening (AID 1296008); also: % is scaled to controls: 0 for no effect and ±100 for the full control effect; nearly all actives have a fitted effect of over 60% in size
Settings: Five cell lines viability, CellTiter-Glo ATP luminescence, 48-72 h; stronger effect = lower value
Inconclusive results are not listed.
As shown below, each of these molecules has a reported max response value.
Give the number; % is assumed, so skip it.

- CNC1(C)C2CCC(C2)C1(C)C (centres undefined): -9.06
- Cc1ccc(S(=O)(=O)NC(=O)NN2CCCCCC2)cc1: -0.0062

Please find the next molecule below.
Q: Identify measured max response associated with Brc1c(NC2=NCCN2)ccc2nccnc12
A: -12.5

---

Experiment: Validation screen for small molecules that induce DNA re-replication in MCF 10A normal breast cells (AID 463097); also: nearly all actives have a fitted effect of over 60% in size
Settings: MCF 10A cells, DNA re-replication phenotype imaging; series mostly up to 46.1 µM
Records with an inconclusive call do not appear. Activity calls are given as the source filed them. Calls follow the shape of the dose curve; as a rule, active = well fitted activation curve with a large enough effect; inconclusive = small, poorly fitted or top-dose-only effect; inactive = flat fitted curve, though single readings scatter.
Please state which outcome applies, choosing from t (active), f (inactive)

Illustrative cases are given below, each with its answer.
• Fc1ccc(C(c2ccc(F)cc2)N2CCN(C/C=C/c3ccccc3)CC2)cc1 = t
• CCCCNC(=O)NS(=O)(=O)c1ccc(C)cc1 = f
• CCCOc1ccccc1-c1nc2n[nH]nc2c(=O)[nH]1 = f
• CN(C)CC[C@@H](c1ccc(Br)cc1)c1ccccn1 = f
• CCCN(CCC)C(=O)C(CCC(=O)O)NC(=O)c1ccccc1 (configuration not stated) = f

# evaluate next
Q: For CCOC(=O)C1=C(C)NC(C)=C(C(=O)OC)C1c1cccc(Cl)c1Cl (configuration not stated) , what call appears in the results of this test?
A: t
